quantity-name: melting point

[[record]]
mol_smiles = "CCc1ccc(-c2cccn3c(C(C)=O)c(C)nc23)cc1"
quantity_name = "melting point"
reading = "169 to 172 °C"


Problem: // returns reported melting point for input CC(=O)c1c(C)nc2c(-c3ccccc3C)cccn12
Solution: 157 to 159 °C

Problem: Record: CC(=O)c1c(C)nc2c(-c3ccc(C(F)(F)F)cc3)cccn12
Solution: 121 to 123 °C

* * *

- assay-system: VRV-PLA2-VIII (Daboia russelii)
- protocol-text: biochemical
- Set-up: species or system Vipera russelli
- experimental-setup: read-out: IC50 (μM) VRV-PLA2-VIII
quantity-name: IC50

Problem: GET /values?readout=IC50&item= CC(=O)c1c(C)nc2c(-c3ccc(C(F)(F)F)cc3)cccn12 [3k]
Solution: > 100 µM

* * *

- assay-system: VRV-PLA2-VIII (Daboia russelii, UniProt P59071)
- Sequence (P59071 whole entry, looked up): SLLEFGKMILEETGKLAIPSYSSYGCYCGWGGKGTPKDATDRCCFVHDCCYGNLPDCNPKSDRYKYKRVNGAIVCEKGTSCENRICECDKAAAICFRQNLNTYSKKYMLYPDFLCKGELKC
- protocol-text: biochemical
- Parameters: species or system Vipera russelli
quantity-name: pIC50
Please express pIC50 as -log10 of the molar concentration.

Example cases with answers are listed next.
[[record]]
compound = "CC(=O)c1c(C)nc2c(-c3ccc(Cl)cc3)cccn12"
quantity_name = "pIC50"
reading = 3.71

[[record]]
compound = "CC(=O)c1c(C)nc2c(-c3cccc(Cl)c3)cccn12"
quantity_name = "pIC50"
reading = 4.05

[[record]]
compound = "COc1cccc(-c2cccn3c(C(C)=O)c(C)nc23)c1"
quantity_name = "pIC50"
reading = 4.19

[[record]]
compound = "CC(=O)c1c(C)nc2c(-c3ccccc3C)cccn12"
quantity_name = "pIC50"
reading = 3.72

[[record]]
compound = "COc1cccc(-c2cccn3c(C(C)=O)c(C)nc23)c1F"
quantity_name = "pIC50"
reading = 3.87

[[record]]
compound = "CC(=O)c1c(C)nc2c(-c3ccc(OCc4ccccc4)c(F)c3)cccn12"
quantity_name = "pIC50"
reading = 3.85


Problem: // pIC50 lookup, key: CCC(CCc1cccn2c(C(C)=O)c(C)nc12)C(=O)NC1CCCC1 (stereo not shown)
Solution: 3.94

Problem: Another compound: CC(=O)c1c(C)nc2c(-c3ccc(Cl)c(C(F)(F)F)c3)cccn12
Solution: 3.81

Problem: How about CCc1ccc(-c2cccn3c(C(C)=O)c(C)nc23)cc1 ?
Solution: 4.36

Problem: Now the same for CC(=O)c1c(C)nc2c(-c3cccc4ccccc34)cccn12
Solution: 4.64

* * *

Listed molecules paired with reported melting point

Some entries whose results are on file:
[[record]]
molecule = "CC(=O)c1c(C)nc2c(-c3cccc4ccccc34)cccn12"
quantity_name = "melting point"
reading = "179 to 182 °C"

[[record]]
molecule = "CCC(CCc1cccn2c(C(C)=O)c(C)nc12)C(=O)NC1CCCC1 (stereo not drawn)"
quantity_name = "melting point"
reading = "117 to 119 °C"

[[record]]
molecule = "CC(=O)c1c(C)nc2c(-c3ccc(Cl)cc3)cccn12"
quantity_name = "melting point"
reading = "111 to 114 °C"

[[record]]
molecule = "CC(=O)c1c(C)nc2c(-c3ccc(Cl)c(C(F)(F)F)c3)cccn12"
quantity_name = "melting point"
reading = "141 to 143 °C"

[[record]]
molecule = "COc1cccc(-c2cccn3c(C(C)=O)c(C)nc23)c1"
quantity_name = "melting point"
reading = "116 to 119 °C"


Problem: Consider the molecule CC(=O)c1c(C)nc2c(-c3ccccc3)cccn12 and give its measured melting point.
Solution: 160 to 162 °C

* * *

Measured melting point, listed per entry for reference.

[[record]]
mol_smiles = "CC(=O)c1c(C)nc2c(-c3cccc(Cl)c3)cccn12"
reading = "114 to 116 °C"

[[record]]
mol_smiles = "CC(=O)c1c(C)nc2c(-c3ccc(OCc4ccccc4)c(F)c3)cccn12"
reading = "154 to 156 °C"


Read the next record carefully.
Problem: Quick one: melting point for COc1cccc(-c2cccn3c(C(C)=O)c(C)nc23)c1F ?
Solution: 190 to 192 °C
